Hello, the source for this data is patent US6476062B2, in case you need it.

Target: human CCR5 chemokine receptor (Homo sapiens)
Sequence (P51681 whole entry): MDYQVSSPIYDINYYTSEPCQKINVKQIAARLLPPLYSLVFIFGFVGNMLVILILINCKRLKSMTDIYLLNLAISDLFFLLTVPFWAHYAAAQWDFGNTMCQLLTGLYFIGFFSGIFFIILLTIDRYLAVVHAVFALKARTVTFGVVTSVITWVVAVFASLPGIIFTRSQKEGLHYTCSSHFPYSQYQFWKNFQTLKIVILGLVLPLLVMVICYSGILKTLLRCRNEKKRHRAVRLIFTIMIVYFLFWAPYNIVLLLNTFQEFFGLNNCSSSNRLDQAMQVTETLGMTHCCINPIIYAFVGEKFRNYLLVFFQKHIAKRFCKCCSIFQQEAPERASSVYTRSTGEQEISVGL
Reported Property: pIC50
Numbers only, as −log10 of the molar value.

# input compound: C/C=C(\C)[C@@H]1C=C[C@@H]2C[C@H](C)C[C@H](C)[C@H]2[C@@H]1/C(O)=C1/C(=O)N[C@H](C[C@@](C)(O)C(=O)O)C1=O [Compound II] ; wanted: its pIC50
7.10
